Reference source: patent US20250109157A1

# Test: Huh7 CC50 cytotoxicity
# Format: cell-based
# Conditions used: human, Huh7 cells, CellTiter-Glo
Endpoint label: CC50 at 48 h

The compound listed as CCC(CC)COC(=O)[C@H](C)NP(=O)(OC[C@H]1O[C@@](C#N)(c2csc3c(N)ncnc23)[C@H](O)[C@@H]1O)Oc1ccccc1 (stereo partly shown) has a reported CC50 at 48 h of > 25 µM

* * *

# Tested target: RSV RNP complexes (Human respiratory syncytial virus A)
# Sequence (P03421 whole entry): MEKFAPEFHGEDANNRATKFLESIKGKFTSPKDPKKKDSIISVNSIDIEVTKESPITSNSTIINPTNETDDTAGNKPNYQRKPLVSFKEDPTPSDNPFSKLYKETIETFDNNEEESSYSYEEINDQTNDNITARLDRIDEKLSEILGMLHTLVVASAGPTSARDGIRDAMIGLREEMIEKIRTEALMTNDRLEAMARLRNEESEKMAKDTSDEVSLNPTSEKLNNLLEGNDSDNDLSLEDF
# Sequence (P28887 whole entry): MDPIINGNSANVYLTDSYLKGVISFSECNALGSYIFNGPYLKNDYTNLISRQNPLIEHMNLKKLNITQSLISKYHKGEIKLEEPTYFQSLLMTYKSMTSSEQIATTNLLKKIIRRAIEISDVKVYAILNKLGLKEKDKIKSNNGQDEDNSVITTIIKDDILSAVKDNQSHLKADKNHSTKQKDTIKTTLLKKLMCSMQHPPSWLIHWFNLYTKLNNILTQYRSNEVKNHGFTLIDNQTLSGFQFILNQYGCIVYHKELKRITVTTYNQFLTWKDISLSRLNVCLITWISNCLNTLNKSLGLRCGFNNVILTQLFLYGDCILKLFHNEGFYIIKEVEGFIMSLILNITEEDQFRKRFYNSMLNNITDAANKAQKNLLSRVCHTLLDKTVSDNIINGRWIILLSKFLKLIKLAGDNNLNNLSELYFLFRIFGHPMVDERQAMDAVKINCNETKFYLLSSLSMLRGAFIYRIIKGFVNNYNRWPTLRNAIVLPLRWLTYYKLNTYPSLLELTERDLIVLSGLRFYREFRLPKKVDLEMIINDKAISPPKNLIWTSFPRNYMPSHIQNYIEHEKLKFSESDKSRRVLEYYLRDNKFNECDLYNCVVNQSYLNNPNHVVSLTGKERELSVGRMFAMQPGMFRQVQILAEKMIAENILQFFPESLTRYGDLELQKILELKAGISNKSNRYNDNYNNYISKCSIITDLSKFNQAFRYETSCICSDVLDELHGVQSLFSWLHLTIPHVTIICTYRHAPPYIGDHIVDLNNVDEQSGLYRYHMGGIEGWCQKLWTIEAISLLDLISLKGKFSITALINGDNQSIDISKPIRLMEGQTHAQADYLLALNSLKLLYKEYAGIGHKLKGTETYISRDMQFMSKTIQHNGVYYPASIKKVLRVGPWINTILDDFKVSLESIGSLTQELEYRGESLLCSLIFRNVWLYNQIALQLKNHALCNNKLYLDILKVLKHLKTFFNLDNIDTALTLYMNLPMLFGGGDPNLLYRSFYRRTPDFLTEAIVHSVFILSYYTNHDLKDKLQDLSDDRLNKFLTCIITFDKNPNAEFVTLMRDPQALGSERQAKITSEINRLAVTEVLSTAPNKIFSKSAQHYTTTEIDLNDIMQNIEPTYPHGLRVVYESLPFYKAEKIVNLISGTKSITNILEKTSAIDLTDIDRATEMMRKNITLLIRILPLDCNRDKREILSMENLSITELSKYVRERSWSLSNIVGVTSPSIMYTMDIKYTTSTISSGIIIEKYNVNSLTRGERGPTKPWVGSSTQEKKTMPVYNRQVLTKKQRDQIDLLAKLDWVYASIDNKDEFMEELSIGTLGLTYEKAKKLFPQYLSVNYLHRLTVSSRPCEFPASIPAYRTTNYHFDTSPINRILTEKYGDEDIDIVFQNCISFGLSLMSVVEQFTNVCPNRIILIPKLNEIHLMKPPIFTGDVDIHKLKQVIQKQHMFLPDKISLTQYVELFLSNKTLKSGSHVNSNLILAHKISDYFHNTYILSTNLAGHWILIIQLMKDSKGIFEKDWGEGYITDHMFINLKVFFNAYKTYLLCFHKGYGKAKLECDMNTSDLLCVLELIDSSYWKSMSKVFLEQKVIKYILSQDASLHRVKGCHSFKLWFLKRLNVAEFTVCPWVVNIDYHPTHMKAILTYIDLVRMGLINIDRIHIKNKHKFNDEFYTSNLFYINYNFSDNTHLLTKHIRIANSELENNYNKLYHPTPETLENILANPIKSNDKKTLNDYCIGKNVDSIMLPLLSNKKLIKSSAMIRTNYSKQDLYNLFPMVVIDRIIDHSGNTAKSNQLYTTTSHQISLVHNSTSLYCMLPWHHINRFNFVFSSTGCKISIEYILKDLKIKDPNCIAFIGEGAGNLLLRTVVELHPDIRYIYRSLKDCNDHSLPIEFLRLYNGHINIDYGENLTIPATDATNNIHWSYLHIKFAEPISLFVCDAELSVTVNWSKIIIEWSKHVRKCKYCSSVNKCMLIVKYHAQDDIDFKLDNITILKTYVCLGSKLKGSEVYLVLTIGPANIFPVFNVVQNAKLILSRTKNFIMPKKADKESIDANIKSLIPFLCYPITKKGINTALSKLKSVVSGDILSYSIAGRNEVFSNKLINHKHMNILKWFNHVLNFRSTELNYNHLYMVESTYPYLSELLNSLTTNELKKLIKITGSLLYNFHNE
# Test: RSV RNP Polymerase IC50 transcription assay
# Format: biochemical
# Conditions used: crude RSV RNP complexes, 90 min at 30° C.
Endpoint label: IC50 (nM)
Numeric answer only, unit nM assumed.

Entry N#C[C@@]1(c2csc3c(N)ncnc23)O[C@H](COP(=O)(O)OP(=O)(O)OP(=O)(O)O)[C@@H](O)[C@H]1O , IC50 reported as 2910

* * *

# Test: HEp-2 CC50 cytotoxicity
# Type: cell-based
# Conditions used: human; HEp-2 cells, 4-5 days, CellTiter Glo; read-out: HEp2 CC50
Endpoint label: CC50

Lab note: measured CC50 of CC(C)(C)C(=O)SCCOP(=O)(OCCSC(=O)C(C)(C)C)OC[C@H]1O[C@@](C#N)(c2csc3c(N)ncnc23)[C@H](O)[C@@H]1O was > 50 µM

Documented CC50 of N#C[C@@]1(c2csc3c(N)ncnc23)O[C@H](CO)[C@@H](O)[C@H]1O : > 100 µM

Record CCC(CC)COC(=O)[C@H](C)NP(=O)(OC[C@H]1O[C@@](C#N)(c2csc3c(N)ncnc23)[C@H](O)[C@@H]1O)Oc1ccccc1 (stereo partly drawn) , field CC50: > 37.2 µM

* * *

# Test: A549-hACE2 CC50 cytotoxicity
# Assay type: cell-based
# Conditions used: human, A549-hACE2 cells, CellTiter-Glo
# Experimental: The cytotoxicity of compounds was determined in A549-hACE2 cells in the following manner. Compounds (200 nL) were spotted onto 384-well Grenier plates prior to seeding 5000 A549-hACE2 cells/well in a volume of 40 μL culture medium. The plates were incubated at 37° C. for 48 hours with 5% CO2. […] Plates were read for luminescence on an Envision (PerkinElmer) and the CC50 values were calculated using a nonlinear regression model (four parameters).
Endpoint label: CC50 at 48 h

Entry under test: CCC(CC)COC(=O)[C@H](C)NP(=O)(OC[C@H]1O[C@@](C#N)(c2csc3c(N)ncnc23)[C@H](O)[C@@H]1O)Oc1ccccc1 (stereo partly shown) . Its CC50 at 48 h was > 50 µM

* * *

Endpoint label: pIC50
Just so you know, pIC50 here is -log10 of the concentration in molar units; reply with that number alone.

The measured pIC50 that N#C[C@@]1(c2csc3c(N)ncnc23)O[C@H](COP(=O)(O)OP(=O)(O)OP(=O)(O)O)[C@@H](O)[C@H]1O showed for DENV2 NS5 (Dengue virus type 2, UniProt P14340) is 5.05

* * *

# Test: MT4 CC50 cytotoxicity
# Assay type: cell-based
# Conditions used: human; MT4 cells, 4-5 days, CellTiter Glo
Hi there, I'd appreciate the recorded CC50 for every entry that follows.
Provide the reading as a plain figure in µM.

Reported CC50 of CC(C)(C)C(=O)SCCOP(=O)(OCCSC(=O)C(C)(C)C)OC[C@H]1O[C@@](C#N)(c2csc3c(N)ncnc23)[C@H](O)[C@@H]1O : 11.1

The compound listed as CCC(CC)COC(=O)[C@H](C)NP(=O)(OC[C@H]1O[C@@](C#N)(c2csc3c(N)ncnc23)[C@H](O)[C@@H]1O)Oc1ccccc1 (stereo partly drawn) has a reported CC50 of 19
